Sequence of the target: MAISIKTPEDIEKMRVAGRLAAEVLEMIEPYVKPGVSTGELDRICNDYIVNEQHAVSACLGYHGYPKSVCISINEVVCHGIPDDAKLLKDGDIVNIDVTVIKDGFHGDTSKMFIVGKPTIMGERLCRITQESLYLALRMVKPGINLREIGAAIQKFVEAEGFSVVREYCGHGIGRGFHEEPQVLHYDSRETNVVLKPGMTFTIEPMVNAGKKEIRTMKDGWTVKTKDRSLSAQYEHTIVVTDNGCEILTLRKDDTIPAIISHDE
pIC50: −log10 of the molar value.

{"SMILES ENTRY": "O=C(Nc1nccs1)c1cc(NCc2ccccc2)ccn1", "INEQUALITY OPERATOR": "=", "pIC50": 5.63}
{"SMILES ENTRY": "CCCCc1ccc(C(=O)Nc2nccs2)nc1", "INEQUALITY OPERATOR": "<", "pIC50": 4.00}
{"SMILES ENTRY": "CC(=O)OCc1cccc(C(=O)Nc2nccs2)n1", "INEQUALITY OPERATOR": "<", "pIC50": 4.00}
{"SMILES ENTRY": "O=C(Nc1nccs1)c1cc(Cl)ccn1", "INEQUALITY OPERATOR": "<", "pIC50": 4.00}
{"SMILES ENTRY": "CC(C)(C)OC(=O)Nc1ccc(C(=O)Nc2nccs2)nc1", "INEQUALITY OPERATOR": "=", "pIC50": 4.89}
{"SMILES ENTRY": "Nc1ccc(C(=O)Nc2nccs2)nc1", "INEQUALITY OPERATOR": "=", "pIC50": 5.68}
